reportedEndpoint: melting point

molecule	melting point
CC1(C)Oc2ncnc(N)c2N=C1c1ccc2c(c1)CC(CC(=O)O)C2 (stereo not shown)	> 250 °C
CC1(C)Oc2ncnc(N)c2N=C1c1ccc2c(c1)C(CC(=O)O)CCC2 (stereo not shown)	> 250 °C

// below: melting point requested for another molecule
Request: Would you kindly share the measured melting point for CC1(C)Oc2ncnc(N)c2N=C1c1ccc([C@H]2CC[C@H](C(=O)N3CCCC3C(=O)O)CC2)cc1 (stereo partly shown) ?
Result: 193 to 194 °C

====

reportedEndpoint: melting point

compound	melting point
Cc1nc(N)c2c(n1)OC(C)(C)C(c1ccc([C@H]3CC[C@H](CCc4nc(=O)on4C)CC3)cc1)=N2 [Example 2-197]	250 °C (dec.)
CC1(C)Oc2ncnc(N)c2NC1c1ccc([C@H]2CC[C@H](CS(N)(=O)=O)CC2)cc1 (stereo partly shown) [Example 2-221]	> 250 °C
Cc1nc(N)c2c(n1)OC(C)(C)C(c1ccc([C@H]3CC[C@H](Cc4nn[nH]n4)CC3)cc1)=N2 [Example 2-137]	> 250 °C
CC1(C)Oc2ncnc(N)c2N=C1c1ccc([C@H]2CC[C@H](C(=O)N3CCCC3)CC2)cc1 [Example 2-235]	201 to 202 °C
CC1(C)Oc2ncnc(N)c2N=C1c1ccc([C@H]2CC[C@H](CNC(=O)OCc3ccccc3)CC2)cc1 [Example 2-61]	159 to 162 °C

Request: Would you kindly share the measured melting point for CC1(C)Oc2ncnc(N)c2NC1c1ccc(Cl)cc1 (stereo not shown) [Example 2-19] ?
Result: > 230 °C

Request: Could you do the same for CC1(C)Oc2ncnc(N)c2N=C1c1ccc([C@H]2CC[C@H](C(=O)N3CCCCC3)CC2)cc1 [Example 2-236] , please?
Result: 220 to 224 °C

Request: Could you do the same for CCN(C)C(=O)CC[C@H]1CC[C@H](c2ccc(C3=Nc4c(N)ncnc4OC3(C)C)cc2)CC1 [Example 2-188] , please?
Result: 173 to 175 °C

Request: Could you do the same for Cc1nc(N)c2c(n1)OC(C)(C)C(c1ccc([C@H]3CC[C@H](CNC(=O)C(O)C(C)(C)CO)CC3)cc1)=N2 (stereo partly shown) [Example 2-163] , please?
Result: 219 to 221 °C

Request: Could you do the same for Cc1nc(N)c2c(n1)OC(C)(C)C(c1ccc([C@H]3CC[C@H](CC(C)(C)C(=O)O)CC3)cc1)=N2 [Example 2-202] , please?
Result: > 225 °C

Request: Could you do the same for Cc1ccc(S(=O)(=O)NC[C@H]2CC[C@H](c3ccc(C4=Nc5c(N)ncnc5OC4(C)C)cc3)CC2)cc1 [Example 2-129] , please?
Result: 206 to 207 °C

Request: Could you do the same for Nc1ncnc2c1N=C(c1ccc(Cl)c(Cl)c1)CO2 [Example 1-27] , please?
Result: > 220 °C

Request: Could you do the same for CC1(C)Oc2ncnc(N)c2N=C1c1ccc([C@H]2CC[C@H](Cc3cnc(C(C)(C)C)[nH]3)CC2)cc1 [Example 2-119] , please?
Result: > 250 °C

====

reportedEndpoint: melting point

compound	resultValue
Cc1nc(N)c2c(n1)OC(C)(C)C(c1ccc([C@H]3CC[C@H](CN4CCCC(O)C4=O)CC3)cc1)=N2 (some centres unmarked)	228 to 229 °C
Cc1nc(N)c2c(n1)OC(C)(C)C(c1ccc([C@H]3CC[C@H](CNC4=NCCO4)CC3)cc1)=N2	216 to 250 °C
CC1(C)Oc2ncnc(N)c2N=C1c1ccc([C@H]2CC[C@H](CC(=O)CO)CC2)cc1	155 to 156 °C

Request: Would you kindly share the measured melting point for Cc1nc(N)c2c(n1)OC(C)(C)C(c1ccc([C@H]3CC[C@H](CNC(N)=O)CC3)cc1)=N2 ?
Result: 219 to 221 °C

Request: Could you do the same for CC1(C)Oc2ncnc(N)c2N=C1c1ccc([C@H]2CC[C@H](C(N)=O)CC2)cc1 , please?
Result: > 250 °C

Request: Could you do the same for Nc1ncnc2c1N=C(c1ccc(C3CCCCC3)cc1)CO2 , please?
Result: 219 to 221 °C

Request: Could you do the same for CCNC(=O)NC[C@H]1CC[C@H](c2ccc(C3=Nc4c(N)nc(C)nc4OC3(C)C)cc2Cl)CC1 , please?
Result: > 250 °C

Request: Could you do the same for Nc1nc(N)c2c(n1)OCC(c1ccc(Br)cc1)=N2 , please?
Result: > 220 °C
